# Tested on: SF-268
# assayProcedure: NCI tumour cell line growth inhibition, 48 h
The source made the active and inactive calls. No stated cut-off is given here; in the data, active = GI50 up to about 1.1 µM and inactive = higher.

compound	GI50
CCOC(=O)c1ccc2c(=O)n3c(C(=O)OCC)ccc3c(=O)n12	> 100 µM (inactive)
CCOC(=O)Cc1nn2c(=O)cc(C)nc2s1	> 100 µM (inactive)
COC1=C2CC(C)CC(OC)C(OC(=O)CCCN)C(C)/C=C(\C)C(OC(N)=O)C(OC)/C=C\C=C(/C)C(=O)NC(=CC1=O)C2=O (centres undefined)	10.3 µM (inactive)
N#C/C(=C\c1ccccc1O)C(N)=O	81.7 µM (inactive)
O=C1CSC(c2ccc(Cl)cc2)N1c1ccc(Oc2ccc(Cl)cc2)c(Cl)c1 (centres undefined)	10.7 µM (inactive)
SC[C@@H]1COC[C@H](CS)S1	> 100 µM (inactive)
CSCCC(NC(=O)C(Cc1ccccc1)NC(=O)CNC(=O)CNC(=O)C(N)Cc1ccc(O)cc1)C(=O)O (centres undefined)	> 100 µM (inactive)
Oc1ccc([C@H]2c3c(O)cc(O)cc3C3c4c(cc(O)cc4[C@@H]2[C@H]2c4cc(O)cc5c4C(c4cc(O)cc(O)c4[C@@H]2c2ccc(O)cc2)[C@@H](c2ccc(O)cc2)O5)O[C@@H]3c2ccc(O)cc2)cc1 (some centres undefined)	1.61 µM (inactive)
N#Cc1ccc(/C=C(/C(=O)c2ccccc2)c2ccccc2)cc1	15.2 µM (inactive)
Nc1nc(N)c2ncn(-c3ccccc3)c2n1	> 100 µM (inactive)
CCn1c(SCc2nnc(Nc3ccccc3)s2)nc2ccccc2c1=O	3.98 µM (inactive)
NNC(=O)CSc1nc2ccc(I)cc2c(=O)n1Cc1ccccc1	17.5 µM (inactive)
C#CC1(O)CCC2C3CCc4cc(Oc5nc(F)nc(-c6c7ccccc7c7n6CCS7)n5)ccc4C3CC[C@@]21C (some centres undefined)	29 µM (inactive)
COc1cc2c(cc1OCCCCN1C(=O)c3cccc4cccc(c34)C1=O)N=C[C@@H]1CCCN1C2=O	4.92 µM (inactive)
Cc1nc2ccccn2c1/N=N/c1ccc(C(=O)NN)cc1	19.4 µM (inactive)
COC(=O)C1=C(O)c2cc(OC)c(OC)c(OC)c2[C@H](c2cc(OC)c(OC)c(OC)c2)C1C(=O)OC (some centres undefined)	42.1 µM (inactive)
CCOC(NC(=O)CC)(C(F)(F)F)C(F)(F)F	> 100 µM (inactive)
CN1CCN(CN2C(=O)C3C4C=CC(C3C2=O)C2C3C(=O)N(CN5CCN(C)CC5)C(=O)C3C42)CC1 (centres undefined)	17.2 µM (inactive)
O=C(OCc1c(-c2ccccc2)nn(-c2ccccc2)c1COC(=O)Oc1ccccc1)Oc1ccccc1	> 100 µM (inactive)

* * *

# Tested on: HCT-116
# assayProcedure: NCI tumour cell line growth inhibition, 48 h
Activity calls are given as the source filed them. Rule as the data show it: active = GI50 up to about 1.1 µM and inactive = higher.
measuredMetric: GI50

In [3]: df
Out[3]:
                                    molecule               result
 0   OC(Cc1ccc2ccccc2n1)(C(F)(F)Cl)C(F)(F)Cl   > 10 µM (inactive)
 1  Cc1ccc(S(=O)(=O)N/N=C2\C(=O)C3CC2C(Cl)C3Cl)cc1 (stereo unspecified)  > 100 µM (inactive)
 2  N#CC(C(=O)CCCC(=O)Nc1ccc(Cl)cc1Cl)c1ccc(Cl)cc1 (stereo unspecified)  > 100 µM (inactive)
 3  COC(=O)C1CC2CC(=NNC(N)=O)CC2C1 (stereo unspecified)  > 100 µM (inactive)
 4                 NC(=O)c1sc2nc3ccccc3n2c1N   74.1 µM (inactive)
 5  COc1ccc(OC)c(CC(C)N)c1 (stereo unspecified)  > 100 µM (inactive)
 6  Cc1cccc(=O)c([O-])c1.Cc1cccc(=O)c([O-])c1.[Bi+3].[Cl-]   3.33 µM (inactive)
 7  O=C1CSC(c2ccc(Cl)cc2)N1c1ccc(Oc2ccc(Cl)cc2)c(Cl)c1 (stereo unspecified)   15.7 µM (inactive)
 8  OCc1cc2c(ccc3sc4ccc5sc6ccc7ncccc7c6c5c4c32)s1   8.47 µM (inactive)
 9  O=c1c(C(c2ccc(Cl)cc2)c2c(O)c3ccccc3n(-c3ccccc3)c2=O)c(O)c2ccccc2n1-c1ccccc1   24.8 µM (inactive)
10                    c1ccc2c(c1)ccc1ncccc12  > 100 µM (inactive)

* * *

GI50 values for the compounds below.
# System: RXF 393
# assayProcedure: NCI tumour cell line growth inhibition, 48 h
The source made the active and inactive calls. No stated cut-off is given here; in the data, active = GI50 up to about 1.1 µM and inactive = higher.
measuredMetric: GI50

compound	result
CC(O)C1(CNc2cc(Cl)nc(N)n2)CCCCC1 (centres undefined)	> 100 µM (inactive)
CN1C(=O)C(=Cc2ccc(Br)cc2)C(=O)N(C)C1=O	40.8 µM (inactive)
O=C(CSc1ncnc2[nH]cnc12)c1ccccc1	> 76.2 µM (inactive)
CC(=O)OCC1=C(C(=O)O)C(c2ccc3c(c2)OCO3)c2cc3c(cc2O1)OCO3 (centres undefined)	> 100 µM (inactive)
C[C@]12CC[C@@H]3c4ccc(OC(=O)c5ccccc5)cc4CC[C@H]3[C@@H]1CC[C@@H]2Oc1c2ccccc2nc2ccccc12	8.09 µM (inactive)
CN(C)C(=S)/N=c1\ss/c(=N\S(=O)(=O)c2ccccc2)n1C	> 100 µM (inactive)
CC1(C)C=C(/C=C2/N(S(=O)(=O)C(F)(F)F)C(/C=C3/N(S(=O)(=O)C(F)(F)F)C(C)(C#N)CC3(C)C)=CC2(C)C)N=C1/C=C1/CC(C)(C)C(=O)N1 (centres undefined)	18.6 µM (inactive)
N#C/C(=C\c1ccccc1O)C(N)=O	25.7 µM (inactive)
O=C(Nc1ccccc1C(=O)O)C(=O)C(C(=O)c1ccccc1-c1ccccc1)C1OC(=O)c2ccccc21 (centres undefined)	13.6 µM (inactive)
COC(=O)C(Cc1c[nH]c2ccccc12)NP(=O)(O)OCC1OC(n2cc(Br)c(=O)[nH]c2=O)CC1O (centres undefined)	> 100 µM (inactive)
COC(=O)C(=O)C(C(=O)C(=O)Nc1cc(C)ccc1C)c1nc2ccccc2nc1O (centres undefined)	77.3 µM (inactive)
N#Cc1c(Nc2ccccc2)[n+]([O-])c2ccc(Cl)cc2[n+]1[O-]	9.77 µM (inactive)
Cc1cn(CCCCCCOC(=O)NC(CCCNC(=N)N)C(=O)O)c(=O)[nH]c1=O (centres undefined)	> 100 µM (inactive)
COc1cc(CC2c3cc(OC)c(OC)cc3CCN2C)c(Oc2cc3c(cc2OC)-c2c(OC)c(OC)c(OC)c4c2C(C3)N(C)CC4)cc1OC (centres undefined)	2.9 µM (inactive)
COc1ccc2c(c1)CC[C@@H]1[C@@H]2CC[C@]2(C)C(=O)/C(=C/c3cc(OC)c(OC)c(OC)c3)C[C@@H]12	29.6 µM (inactive)
C[C@H]1C[C@H](C)c2ccccc2N(C)/C1=N\c1ccccc1	34.6 µM (inactive)
CCC(C(=O)C(=O)C(CC)P1(=O)OC(C)(C)CN1C(C)(C)C)P1(=O)OC(C)(C)CN1C(C)(C)C (centres undefined)	> 100 µM (inactive)
COc1ccc(C(=O)NCCN(C)C)c2nc3ccccc3nc12	11.4 µM (inactive)
O=C1C=C(O)C(=O)c2c(O)ccc(O)c21	> 100 µM (inactive)

* * *

# System: SN12C
# assayProcedure: NCI tumour cell line growth inhibition, 48 h
Calls of active or inactive are those of the source. Rule as the data show it: active = GI50 up to about 1.1 µM and inactive = higher.
Possible outcomes: active, inactive

                                   compound     group
0  O=C(O)C1C(C(=O)Nc2ccc3c(c2)Cc2ccccc2-3)C2(Cl)C(Cl)=C(Cl)C1(Cl)C2(Cl)Cl (stereo not given)  inactive
1  O=C(NCCc1ccccc1)C1C(=O)C(=O)N(CCc2ccccc2)C1=O (stereo not given)  inactive
2  NC(=O)C1CCCN1C(=O)C(Cc1c[nH]cn1)NC(=O)C1CCCC1 (stereo not given)  inactive
3     COC(=O)Cc1cc(=O)n2c3ccccc3n(C)c2c1C#N  inactive
4  COC(=O)C(Cc1c[nH]c2ccccc12)NP(=O)(O)OCC1OC(n2cc(Br)c(=O)[nH]c2=O)CC1O (stereo not given)  inactive
5  COc1cc(/C=C(\NC(=O)c2ccccc2)c2nc3cc([N+](=O)[O-])ccc3[nH]2)cc(OC)c1OC  inactive
6  Cc1ccc(OCC2OC(n3cnc4nc(N)nc(Cl)c43)CC2Oc2ccc(C)cc2)cc1 (stereo not given)  inactive
7          Cc1cccc(-c2cc(O)c3cc(C)cnc3n2)c1    active
8  CCOC(=O)N1C(c2ccccc2)C=CC(c2ccccc2)N1C(=O)OCC (stereo not given)  inactive
9  N#Cc1c(-c2ccc(Cl)cc2)c2c([nH]c1=O)-c1ccccc1SC2  inactive

* * *

# Test system: T47D
# assayProcedure: NCI tumour cell line growth inhibition, 48 h
Calls of active or inactive are those of the source. Cut-off read from the data, not from the text of the source: active = GI50 up to about 1.1 µM and inactive = higher.
Possible outcomes: Yes = active, No = inactive

compound	targetUnderTest	group
CN(C)/C=N/c1ccc2nonc2c1	T47D	No
COC(=O)C(Cc1c[nH]c2ccccc12)NP(=O)(O)OCC1OC(n2cc(Br)c(=O)[nH]c2=O)CC1O (configuration not stated)	T47D	No
CCOC(=O)/C(C(=O)NC(C)C)=C(/N)N1CCOCC1	T47D	No
CCOC(=O)NC	T47D	No
CN(C)c1nc2nonc2nc1Nc1ccccc1	T47D	No
Nc1cc(S(=O)(=O)O)cc2ccc(S(=O)(=O)O)cc12	T47D	No
O=C(Sc1c(-c2ccccc2)c(=O)n(-c2ccccc2)c(=S)n1-c1ccccc1)c1ccccc1	T47D	No
CO/C(=N\N=C(/C)C(F)(F)F)c1ccncc1	T47D	No
O=C(Nc1nn(C(=O)c2cccnc2)c(=O)s1)c1ccc(Cl)cc1	T47D	No
O=Cc1ccc(-c2cccc([N+](=O)[O-])c2)s1	T47D	No
O=C(OCc1c(-c2ccccc2)nn(-c2ccccc2)c1COC(=O)Oc1ccccc1)Oc1ccccc1	T47D	No
C#CCOC(=O)C(N)CSSCC(N)C(=O)O (configuration not stated)	T47D	No
Cc1cn([C@H]2CN(O)C[C@@H](CO)O2)c(=O)[nH]c1=O	T47D	No
O=C(O)CC[P+](c1ccccc1)(c1ccccc1)c1ccccc1	T47D	No
COC(=O)c1cc(NC(=O)c2cc(NC(=O)Cc3c[nH]c4ccccc34)cn2C)cn1C	T47D	No
C1=C(N2CCOCC2)/C(=C2\SC(=N/c3ccccc3)/C(=N\c3ccccc3)N2c2ccccc2)CC1	T47D	No
COc1ccc2nc3ccc(OC)cc3c(SCc3ccccc3)c2c1	T47D	No
Brc1cccc(Nc2nc(-c3cccs3)nc3ccc(Br)cc23)c1	T47D	No
c1cc(CSP234N5CCN2CCN3CCN4CC5)ccc1CSP123N4CCN1CCN2CCN3CC4	T47D	No
Cc1nc(O)nc(N/N=C/c2ccc(Cl)c(Cl)c2)c1C(=O)Nc1ccc(Cl)c(Cl)c1	T47D	No
CC1OC2=N[C@@H]1C(=O)N[C@@H](C(C)C)C1=N[C@H](C(=O)N[C@@H](C(C)C)C3=N[C@H](C(=O)N[C@@H](C(C)C)C4=N[C@H](C(=O)N[C@H]2C(C)C)C(C)O4)C(C)O3)C(C)O1 (some centres not stated)	T47D	No
Nc1ccc2c(c1)C(=O)N1CCC[C@H]1C(=O)N2	T47D	No
CC1=C/C(=N\NC(N)=S)C(C(O)(C(F)(F)F)C(F)(F)F)C(C)(C)C1 (configuration not stated)	T47D	No
CCOC(=O)c1nc2cc(C(F)(F)F)ccc2nc1Oc1ccc(OC)cc1	T47D	No
COC(=O)/C=C(/C(=O)OC)c1cc2ccc3c([nH]c4ccccc43)c(C)c-2c1	T47D	No
Nc1nc(N)c2ncn(-c3ccccc3)c2n1	T47D	No
COc1cc2cc3c4c(cc(OC)c(OC)c4c2cc1OC)CCN3C	T47D	No
CC1=CC(=O)c2c(O)cccc2C1=O [PLUMBAGIN]	T47D	Yes
CC1(C)C(CCO)CC1n1ccc(=O)[nH]c1=O (configuration not stated)	T47D	No
CCN1C(=O)CS/C1=N/NC(=O)C(O)(c1ccccc1)C1C=CC=CC1 (configuration not stated)	T47D	No
Oc1ccc([C@H]2c3c(O)cc(O)cc3C3c4c(cc(O)cc4[C@@H]2[C@H]2c4cc(O)cc5c4C(c4cc(O)cc(O)c4[C@@H]2c2ccc(O)cc2)[C@@H](c2ccc(O)cc2)O5)O[C@@H]3c2ccc(O)cc2)cc1 (some centres not stated)	T47D	Yes
O=C(O)CCC(=O)c1ccc(Cl)cc1	T47D	No
O=C(CSc1ncnc2[nH]cnc12)c1ccccc1	T47D	No
Cc1cc2c(cc1Cl)S(=O)(=O)OC(c1ccc([N+](=O)[O-])cc1)=N2	T47D	No
CCn1c(SCc2nnc(Nc3ccccc3)s2)nc2ccccc2c1=O	T47D	No
COc1cc(-c2c3c([nH]c(=O)c2C#N)-c2cc([N+](=O)[O-])ccc2CCC3)cc(OC)c1OC	T47D	No
O=C1C(=c2cc3c(c4ccccc24)=NC24CCCCC2C(c2ccccc2)C=C(c2ccccc2)N34)C(=O)c2ccccc21 (configuration not stated)	T47D	No
O=C(CCc1ccccc1)NCCc1ccc(O)c(O)c1	T47D	No
O=C1C=C(O)C(=O)c2c(O)ccc(O)c21	T47D	No
CC1(c2nc3ccccc3[nH]2)CCC(C(=O)O)C(C)(C)O1 (configuration not stated)	T47D	No
CCOC(=O)C1(C/C=C\CBr)CCCCCCC1=O (configuration not stated)	T47D	No
O=C1OC(c2ccccc2)=N/C1=C\c1ccc([N+](=O)[O-])cc1	T47D	No
